- Test settings: in water, 288.15 K
Recorded endpoint: solubility (mole fraction)

I am curious: what solubility (mole fraction) value has been reported for `CN/C(=C\[N+](=O)[O-])NCCSCc1csc(CN(C)C)n1` ?
0.0247

* * *

- Test settings: in ethanol, 278.15 K
Recorded endpoint: solubility (mole fraction)
Answer field: number only, no words.

I am curious: what solubility (mole fraction) value has been reported for `CN/C(=C\[N+](=O)[O-])NCCSCc1csc(CN(C)C)n1` ?
0.00381

* * *

- Test settings: in ethanol, 273.15 K
Recorded endpoint: solubility (mole fraction)

I am curious: what solubility (mole fraction) value has been reported for `CN/C(=C\[N+](=O)[O-])NCCSCc1csc(CN(C)C)n1` ?
0.00287
